- Measured target: CaLsb1
- Test name: SPOT peptide array binding signal intensity (averaged, normalized) (arbitrary units (background-subtracted, floor 0; scale differs between SH3 domains)); higher = stronger binding of the SH3 domain to the peptide
Examples of binders with documented SPOT peptide array binding signal intensity follow.

Known SPOT peptide array binding signal intensity results, listed for orientation:
DFTLPPPPPPPGLDE = 0.5
FLIKFTPKFPQSIDH = 10
YRRKSIPFAPHQITA = 3
VQKRKLPLPGSIASA = ≤ 0
NFLRLLIGLPSQNEL = 2.5

Consider NLDRSKISLPDFDDE . Its measured SPOT peptide array binding signal intensity is ≤ 0

Consider GATNNAPTLPKRKNP . Its measured SPOT peptide array binding signal intensity is 0.5
